I'd appreciate it if you could supply Emax at 2 h values for the items below.
# Target: ABCG2 (Homo sapiens)
# Experiment Description: Inhibition of recombinant human GFP-fused ABCG2 expressed in MDCK2 cells assessed as reduction in Hoechst 33342 efflux at […] preincubated for 30 mins followed by Hoechst 33342 addition measured immediately at 60 sec time interval for 120 mins by fluorescence assay relative to Ko143
# Type: cell-based
# Assay Conditions: MDCK2 cells expressing recombinant GFP-fused human ABCG2, probe Hoechst 33342, read-out: Imax

Examples from the recorded data:
| Chemical Structure | Emax at 2 h |
| --- | --- |
| CC(C)(C)OC(=O)c1cccc(Nc2nc(-c3ccncc3)nc3ccccc23)c1 | 80 to 110% |
| COC(=O)c1cccc(Nc2nc(-c3ccncc3)nc3ccccc23)c1 | 80 to 110% |

Please look at the items below and tell me Emax at 2 h for each one, in order.
1. N#Cc1ccc(Nc2nc(-c3ccccc3)nc3ccccc23)cc1
2. COc1cccc(Nc2nc(-c3cccnc3)nc3ccccc23)c1
3. Fc1cccc(Nc2nc(-c3ccccc3)nc3ccccc23)c1
4. Cc1cc(Nc2ccccc2)nc(-c2ccccc2)n1
5. OCc1cccc(Nc2nc(-c3ccncc3)nc3ccccc23)c1
6. COc1cccc(Nc2cc(C)nc(-c3ccncc3)n2)c1
7. FC(F)(F)c1cccc(Nc2nc(-c3ccncc3)nc3ccccc23)c1

80 to 110%
80 to 110%
80 to 110%
80 to 110%
80 to 110%
80 to 110%
80 to 110%

---

# Target: Broad substrate specificity ATP-binding cassette transporter ABCG2 (Homo sapiens, UniProt Q9UNQ0)
# Sequence (Q9UNQ0 whole entry): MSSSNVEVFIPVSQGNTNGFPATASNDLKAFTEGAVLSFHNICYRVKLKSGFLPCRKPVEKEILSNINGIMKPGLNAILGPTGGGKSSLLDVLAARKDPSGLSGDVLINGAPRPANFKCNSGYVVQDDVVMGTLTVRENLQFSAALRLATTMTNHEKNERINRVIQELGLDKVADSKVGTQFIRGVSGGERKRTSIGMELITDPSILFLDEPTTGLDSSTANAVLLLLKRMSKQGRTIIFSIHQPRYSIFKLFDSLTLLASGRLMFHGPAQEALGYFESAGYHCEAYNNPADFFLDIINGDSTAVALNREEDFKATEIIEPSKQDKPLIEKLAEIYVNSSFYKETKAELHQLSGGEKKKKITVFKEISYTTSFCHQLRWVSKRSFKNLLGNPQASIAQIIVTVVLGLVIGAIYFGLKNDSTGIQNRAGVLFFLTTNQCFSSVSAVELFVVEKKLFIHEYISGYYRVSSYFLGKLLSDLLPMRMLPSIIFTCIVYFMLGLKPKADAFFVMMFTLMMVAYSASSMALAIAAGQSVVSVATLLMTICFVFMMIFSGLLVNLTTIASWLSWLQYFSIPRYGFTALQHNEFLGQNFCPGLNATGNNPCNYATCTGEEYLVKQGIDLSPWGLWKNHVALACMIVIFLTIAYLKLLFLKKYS
# Experiment Description: Inhibition of recombinant human GFP-fused ABCG2 expressed in MDCK2 cells assessed as reduction in Hoechst 33342 efflux preincubated for 30 mins followed by Hoechst 33342 addition measured immediately at 60 sec time interval for 120 mins by fluorescence assay
pIC50: −log10 of the molar value.
Cut-off 6 on pIC50, inclusive. At or above means True; below means False.

| Chemical Structure | Category Label |
| --- | --- |
| Oc1ccc(Nc2nc(-c3ccncc3)nc3ccccc23)cc1 | False |
| O=[N+]([O-])c1ccc(Nc2nc(-c3cccnc3)nc3ccccc23)cc1 | True |

Is reported pIC50 greater than or equal to 6 here: N#Cc1cccc(Nc2nc(-c3ccncc3)nc3ccccc23)c1
True

Is reported pIC50 greater than or equal to 6 here: Fc1cccc(Nc2nc(-c3ccccc3)nc3ccccc23)c1
True

Is reported pIC50 greater than or equal to 6 here: O=[N+]([O-])c1cc(Nc2nc(-c3ccccc3)nc3ccccc23)ccc1O
True

Is reported pIC50 greater than or equal to 6 here: COc1cccc(Nc2nc(-c3ccccn3)nc3ccccc23)c1
False

Is reported pIC50 greater than or equal to 6 here: Cc1cc(Nc2cccc(C#N)c2)nc(-c2ccncc2)n1
True

Is reported pIC50 greater than or equal to 6 here: Oc1ccc(Nc2nc(-c3ccccc3)nc3ccccc23)cc1
True

Data provenance: ChEMBL document CHEMBL4014315
